- experiment summary: xn = mol fraction of the nth substance listed
- study conditions: 328 K; 101 kPa; Liquid; Vibrating tube method; x2 = 0.667
measure: mass density (kg/m3)
Please give a number only; it is taken to be in kg/m3.

## Task # get_value(readout='mass density', item= CCN(CC)CC(=O)Nc1c(C)cccc1C [2-(diethylamino)-N-(2,6-dimethylphenyl)acetamide] + CCCCCCCCCC(=O)O )
## Result 932.3

## Task Another compound to check: CCN(CC)CC(=O)Nc1c(C)cccc1C [2-(diethylamino)-N-(2,6-dimethylphenyl)acetamide] + CCCCCCCCCCCC(=O)O
## Result 921.5

## Task Another compound to check: CCCCCCCC[N+](CCCCCCCC)(CCCCCCCC)CCCCCCCC.[Br-] [tetraoctylammonium bromide] + CCCCCCCCCC(=O)O
## Result 910

## Task Another compound to check: CCN(CC)CC(=O)Nc1c(C)cccc1C [2-(diethylamino)-N-(2,6-dimethylphenyl)acetamide] + Cc1ccc(C(C)C)c(O)c1
## Result 962.9
